- Tested on: PPARg:RXRa DBDmut IVT, anti-RXR (DBD mutation: RXRa K156A/R161A, NR concentration 270 nM, RXRa partner concentration 90 nM)
- protocol: PBM binding z-score (relative to random genomic background probes); higher = stronger binding; sequences stand for … in GC…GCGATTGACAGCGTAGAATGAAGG

sequence chain	PBM binding z-score
AGTCAAAGTTCACTAGGTAACGCAAGATTCAGCT	3.01
TGTCACAGTTCAAAGGTAACGTAAGTATCCACAC	0.227
TCTCGGAGGACACGAGGGTCAGAGCTTTCCAGAG	1.25
CTCGAAAGGTCGTGCTCAGGTGAGTGTACCAAAC	1.29
CCTGACGGGTCACGAGGTTATAGCACGACGAGCG	2.13
AGAATGAGGTTACCAAAGATCAGGGAAACGCTTG	3.53
CCTAGTTGGTCAACGTCACACACGCTATAGGTAC	2.03
CCTAGTTGGTCAAGGCCACACACGCTATAGGTAC	1.25
CAAACTAGGTCAACGGTCAAAGTCGAGCCAACCA	8.71
TCTTGTATATCAATAGAGGTTAAGAAAGTGCGCT	1.98
CCTGCTATGTCAATGGTCAGCTAAAGCAGCTCGC	0.388
GCTTGTATATCAAGGTTAAGAAAGACTAAGCTAA	0.247
AGACCGAGGGCACGCTGAGTTGATAGCAGAGTAG	1.14
GCTGCTAGGTCAGGTTGGTCAGCTTACGGGTACG	2.99
CCTTATGGGTCACTGACAGGTTATAGCATTTGGA	5.9
AGAATGAGGTTACCAAAGAACAGGGAAACGCTTG	3.61
CCTTACGAGTCACGAGGTTATAGCACGACGAGCG	0.274
AATACAGTGTCATCGTAGGCCAGAGTACGCACAG	0.125
ATCTCTAGGTAACCAAGTTGAGTGAATGCCGAAC	3.51
GCTCGGTGGACAAGGTCAGAGCTTTGTCCGTAGA	0.124

====

Quick reference: PBM binding z-score of the listed items.
- System: LXRb:RXRa (NR concentration 270 nM, RXRa partner concentration 90 nM)
- protocol: PBM binding z-score (relative to random genomic background probes); higher = stronger binding; sequences stand for … in GC…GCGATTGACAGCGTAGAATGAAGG

sequence chain	PBM binding z-score
AATACAGGGTCACTAGGCCAGAGTCGGTACGAAT	3.82
CCTAGTTGATCAAGGTCACACACGCTATAGGTAC	4.06
CGTCCAAGGTCAGAGAGTTCAGTGAATGCCGAGT	3
TACACAGGGTCAAAGGCCAGAGTACGAATGTCGA	4.44
CCTTACGCGTCACTGACAGGTTATAGCATTTGGA	0.697
CCTCGGAGGACAACAAGAGGTCAGAGCTGCCAGA	2.35
AGAACGAGGGCAATGAGTTGTTAGCACGGGTGGC	-0.26
TTAGCAAGGTGAGCTGAGGTCGTTGATCCAACTC	0.393
GGAACGTGGGCATTCGAGTTGATAGCATGGCGAT	-1.02
GCATATAGGTAGTACAAGGTGAAAGTCCGATTGT	0.269
CCGAGTAGGTTATGGAGCATTCAGGCAACGGTGA	0.219
CCTTACGGGTCACGCCAGGTTATAGCATCGGAGT	4.1
ATATGTAGGTTACAGCCGGGTCATTCAGGCTATG	2.28
TCATATAGGTCAAGGTGAAAGTCGAACGATATGA	3.73
AGAACGAGGGCACGCGGAGTTGATAGCAGAGTAG	0.259
TCTGCTAGGTCAGTGGGTCAGCTAACGAGCTGCC	0.738
CCTACTAGTTGACCATAAGGGCAACCGAAGCTCG	0.306
ACTCGGAGGACAAAGATCAGAGCTACGCCAGTGA	-0.616
